z-score listing for selected molecules.
RUN DESCRIPTION: JC-1 mitochondrial signal, unstimulated MM1S myeloma – cell-based, JC-1 fluorescence, 24 h, 100 nL compound, profiling panel (AID 1170); further: test concentration not given here
MEASUREMENT SETUP: MM1S mitochondrial potential, higher = more signal
Please reply with the number alone, leaving off any unit.

Would you kindly share the measured z-score for [N-]=[N+]=NCc1ccccc1C[C@]1(C(=O)NCC(O)CO)COC(c2ccc(OCCCO)cc2)=N1 (stereo not given in full) ?
-0.714

Would you kindly share the measured z-score for "C=C(CCCC)/C(=C/C[C@@H](OC(=O)c1ccncc1)c1ccc(CO)o1)c1cc(C(=O)OC)ccc1OC" ?
-2.01

Would you kindly share the measured z-score for "CC(C)C(=C=CC[C@H](O)c1ccccc1OCCO)CCO" ?
-0.305

Would you kindly share the measured z-score for "C=C(C(=O)CC[C@H](OC(=O)c1cccnc1)c1ccccc1OCCO)C(C)C" ?
-0.477

Would you kindly share the measured z-score for "[N-]=[N+]=NCc1ccccc1C[C@]1(C(=O)N2CCOCC2)N=C(c2ccc(OCCCO)cc2)O[C@H]1c1ccccc1" ?
-2.08
